- Test system: MS2 coat protein
- test: apparent KD of MS2 coat protein; designed switch direction (-1 OFF switch, 1 ON switch): -1; higher = weaker reporter binding
- condition_details: input ligand: none
recorded_metric: apparent KD of MS2 coat protein (µM)
Just the number in µM, nothing appended.

Exercise: Reported apparent KD of MS2 coat protein, sequence AUUACGUCAGGAUAUGCGUGUUAGACAUGUUUAACCUAAGAACAUGAGGAUCACCCAUGUAGAAGGGACGCUCA [Eternabot (L1) Solution 78] (Eterna round: R97, puzzle: Exclusion 2) : ____
Solution: 0.0649

Exercise: Reported apparent KD of MS2 coat protein, sequence GCAGCUAAGUGUAAUAACACAAUACAUGAGGAUCACCCAUGUGAGGAUAUGGACUGGAUUACAGUCCAGAAGGCACAAUGCUGC [Zipper Style 4] (Eterna round: R96, puzzle: Exclusion NG 3) : ____
Solution: 0.0209

Exercise: Reported apparent KD of MS2 coat protein, sequence GGGUGCAGGCUGAGGUCCUACAUGAGGAUCACCCAUGUGGUCCGGUGACGUGAGUCGCCGGACUUGGCUCGUCUUGU [salish99_S_TOV1_R5_011] (Eterna round: R97, puzzle: Sensor, turn-off variant 1) : ____
Solution: 0.0521

Exercise: Reported apparent KD of MS2 coat protein, sequence GCAGAAUGAGUUAGGAUAUGAUGAUUUUUCGGAAAUCAGAAGGAACUUGAGGAUCACCCAAGUAAAGAUAGGGU [JR_BMEx4_Sub064] (Eterna round: R97, puzzle: Brourd's mod of Exclusion 4) : ____
Solution: 0.236

Exercise: Reported apparent KD of MS2 coat protein, sequence GCGUGGACUGAGGAUAUCCGAACGGUGCACGGAGGAGAAGGUAGGACAUGAGGAUCACCCAUGUGAACCUAGAU [Ceinormaat] (Eterna round: R97, puzzle: Exclusion 6) : ____
Solution: 0.0198

Exercise: Reported apparent KD of MS2 coat protein, sequence UUUUUAUAUGAAGGAUAUACUUAACAUGAGGAUCACCCAUGUGGUGUUGUGAGUGAGUGAGUUUAGUAGAAGGUCAAAUAUUUU [JMF's solution 7] (Eterna round: R96, puzzle: Exclusion NG 2) : ____
Solution: 0.27

Exercise: Reported apparent KD of MS2 coat protein, sequence CAGGUCUGAAAGGAUAUCCACGCCUGCGGGCCAGGAGAAGGUUCGACUUGAGGAUCACCCAAGUGCCGAGUCCA [Ervezaar] (Eterna round: R97, puzzle: Exclusion 6) : ____
Solution: 0.0206

Exercise: Reported apparent KD of MS2 coat protein, sequence UUCAUGUGAGGAUAUGUGCAAGACCUAGAGAUUGGGUUUUCACAGAAGGCACAUGAGGAUCACCCAUGUGUUAC [Eternabot (L2) Solution 23] (Eterna round: R97, puzzle: Exclusion 4) : ____
Solution: 0.126

Exercise: Reported apparent KD of MS2 coat protein, sequence GCGCACCUACCAAAAGGUAGGCCGACAUGAGGAUCACCCAUGUAGGAUAUCGAUUGCUUUGCAGUCGAGAAGGACGUGAUGCGC [JL ENG3 3.80 Mod 18] (Eterna round: R96, puzzle: Exclusion NG 3) : ____
Solution: 0.0194

Exercise: Reported apparent KD of MS2 coat protein, sequence ACGCGACAUGAGGAUCACCCAUGUGAGGAUAUGGCCUGUUUGUCGUGUGCUGGCUCUGUCAGAAGGCGCGUUGG [salish99_ex1_r4_042] (Eterna round: R97, puzzle: Exclusion 1) : ____
Solution: 0.128

###

- System: MS2 coat protein
- test: apparent KD of MS2 coat protein; designed switch direction (-1 OFF switch, 1 ON switch): -1; higher = weaker reporter binding
- condition_details: input ligand: none
recorded_metric: apparent KD of MS2 coat protein (µM)
Just the number in µM, nothing appended.

Exercise: Reported apparent KD of MS2 coat protein, sequence ACAUGAGGAUCACCCAUGUGACAAUAAUGGCUGAUACAGAGACAGGAUAUACGUGAAUAUCUAACGUAGAAGGGUCAUGACUGG [Deportation 70 - Jieux - Exclusion NG 3] (Eterna round: R96, puzzle: Exclusion NG 3) : ____
Solution: 0.0419

Exercise: Reported apparent KD of MS2 coat protein, sequence UAUUAGCAAGUAAGGUCCCACAUGAGGAUCACCCAUGUGCUCGUCUCCUCAGGUACGGAGCGGAAGCUCCCGAUAUG [Sensor-V1 #94] (Eterna round: R97, puzzle: Sensor, turn-off variant 1) : ____
Solution: 0.102

Exercise: Reported apparent KD of MS2 coat protein, sequence GCAGCAACUCUAAUCAAACCAACAUGAGGAUCACCCAUGUCUCAGGAUAUGGUCUGGAUUACAGGCCAGAAGGGAGAAAGCUGC [Eli exng3 - 047] (Eterna round: R96, puzzle: Exclusion NG 3) : ____
Solution: 0.0149

Exercise: Reported apparent KD of MS2 coat protein, sequence CGCGAGGGAGGAUAUGCACUCAGUGAUCACGCCCAAAUUCGACAUGAGGAUCACCCAUGUAGAAGGCCCGGCUA [EX2 B.15] (Eterna round: R97, puzzle: Exclusion 2) : ____
Solution: 0.019

Exercise: Reported apparent KD of MS2 coat protein, sequence CUUGUUUAUGUAGGAUAUGCCUGGCGUGCCUUUGCAGAAGGACAUGAGGAUCACCCAUGUAACAUGAGGCUCACCCAUGUCGCA [salish99_ExNG1_r04_104] (Eterna round: R96, puzzle: Exclusion NG 1) : ____
Solution: 0.353

###

- Tested on: K4 kissing-loop RNA reporter;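 also: bound reporter read as fluorescence of individual clusters on recovered sequencing chips by microscopy, with normalized cluster intensities fitted with a binding model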
- test: apparent KD of K4 kissing-loop reporter; higher = weaker reporter binding
- condition_details: Eterna round: R107; input ligand: theophylline 20 uM
recorded_metric: apparent KD of K4 kissing-loop reporter (nM)
Just the number in nM, nothing appended.

Exercise: Short answer please: apparent KD of K4 kissing-loop reporter, K4 kissing-loop RNA reporter, entry UAGUCAUACAGAGGAUAUCGUAUGAGUGAUGUUCAUAUGCGUACAUCAACUUGAUGUACACCUAGACGAGAAGGCUGUAUGACUA [FMB B SS t6a]
Solution: 212

Exercise: Short answer please: apparent KD of K4 kissing-loop reporter, K4 kissing-loop RNA reporter, entry UUAGUCUAGAGAAGGAGCGCAGUGAUGUUGCGAAUAAUAAUAAUAAUAAAUAAAUAAUCGAUGCAGGUAGGUCGCUCUAGACAUU [AK1 Exc Arginine B]
Solution: 335

Exercise: Short answer please: apparent KD of K4 kissing-loop reporter, K4 kissing-loop RNA reporter, entry UUCUGCAUCUCGGCCGCCACUCACUAGUGAUGUUAGUAAGGAGCGACUAGACAUGUCCCGUUAUUGAGGACCGGGAGAGGCUCUU [#13 K4 Tryptophan B Exclusion]
Solution: 162

Exercise: Short answer please: apparent KD of K4 kissing-loop reporter, K4 kissing-loop RNA reporter, entry AAACAGCACUGGGAGUGAUGUUCUCAGUGACGAGGACCGGUACGGCCGCCACUCGCGAGAGAACUAGUCUAGACUUGACUGCAUA [Excl Tryptophan A V15]
Solution: 149

Exercise: Short answer please: apparent KD of K4 kissing-loop reporter, K4 kissing-loop RNA reporter, entry AUUCUGUUUUUAAUGUUUAUUGUAUAAUGGCAGGAUAUCGUAGAAGCGAGAAGGGCUUUUAUGCGUUAUGAGUGAUGUUUGUAGG [dhhyfvmullin]
Solution: 410

Exercise: Short answer please: apparent KD of K4 kissing-loop reporter, K4 kissing-loop RNA reporter, entry UGCGCUGUGUACUGAAAUGUCCUGCGGGAUACCAGAGUCUUUUUAUUCCCUUGGCAGCUUGAGUGAUGUUUGAUGCCGUUCUUGU [frrgmullin]
Solution: 738

Exercise: Short answer please: apparent KD of K4 kissing-loop reporter, K4 kissing-loop RNA reporter, entry AAAGAAGUAUACUUCAAGAGGUAUGCUGAUACCAGAGUCAAUUGACUCCCUUGGCAGCGGAUCGAGUGAUGUUCGUAACCUCAAA [AK3 SS Theophylline A]
Solution: 192

Exercise: Short answer please: apparent KD of K4 kissing-loop reporter, K4 kissing-loop RNA reporter, entry CUUCUCCUUCCAAUCUCGGCCAACACGGGACGAGGACCGGUACGGCCGCCACUCGUGCAGUGAUGUUGCACGAUGGUGACGGAGA [Queronmaan]
Solution: 86.9

Exercise: Short answer please: apparent KD of K4 kissing-loop reporter, K4 kissing-loop RNA reporter, entry ACCAUCAAAGAUGGCCAGGACUCAACUGAUACCAGAGUGGAGACACUCCCUUGGCAGCAGGUGAGUGAUGUUCACGAGUCCUGGA [Omel KL Theo A SS B v9]
Solution: 599

Exercise: Short answer please: apparent KD of K4 kissing-loop reporter, K4 kissing-loop RNA reporter, entry GGAGGUUGGUGCGAUACCAGACCUGCAGUGAUGUUGCGCCAAAGUGAGUGAUGUUCACCGGUCCCUUGGCAGCGCGUCCCUUUAG [Same State Theophylline B GF 15]
Solution: 707

Exercise: Short answer please: apparent KD of K4 kissing-loop reporter, K4 kissing-loop RNA reporter, entry GCAUGUAUGCGAGAGUGAUGUUCAUGGUUUCGAGGACCGGUACGGCCGCCACUCGCGAUCCGGCGUACAAUCGUGAAGUUAUCAU [theeternabot_sameState_KL_Trp_A_42]
Solution: 542

Exercise: Short answer please: apparent KD of K4 kissing-loop reporter, K4 kissing-loop RNA reporter, entry UGACUUGCCUGAGGAUAUCUAGGAUAUCCAUAAAAGGAAAUAAUAGUUCAGUGAUGUUGGAGAAGGAGAGAAGGCAGGUAAGUCU [KL-XFMN-B18 #DoubleAptamer #SwitchBubble]
Solution: 737
